The values you see were collected from patent US20130345205A1.

Measured property: melting point

IN: What value of measured melting point is listed for `COc1cnc(CN2CCn3nc(COc4ccccc4)cc3C2=O)nc1` ?
OUT: > 300 °C

IN: What do you have for `O=C1c2cc(COc3cccc(F)c3)nn2CCN1Cc1ncccc1F` ?
OUT: > 300 °C

IN: What about this molecule? CC(c1cccnc1)N1CCn2nc(COc3ccccc3)cc2C1=O (centres unmarked)
OUT: > 300 °C (dec.)

IN: Same question, `Cn1c(CN2CCn3nc(COc4ccccc4)cc3C2=O)nc2ccccc21` this time
OUT: > 300 °C

IN: Entry to check: `Cc1nccc(CN2CCn3nc(COc4ccccc4)cc3C2=O)n1`
OUT: > 300 °C
